Measured MIC values are reported for all entries that follow.
Tested on: Escherichia coli
TEST NAME: Antibacterial activity against Escherichia coli isolate 055 by broth microdilution assay
Format: functional
ENDPOINT LABEL: MIC

MOL | ENDPOINT LABEL | ENDPOINT RESULT
NC[C@@H]1O[C@H](O[C@H]2[C@@H](O)[C@H](O[C@@H]3[C@@H](O)[C@H](N)C[C@H](N)[C@H]3O[C@H]3O[C@H](CO)[C@@H](O[C@@H]4O[C@H](CO)[C@@H](N)[C@H](O)[C@H]4O)[C@H](O)[C@H]3N)O[C@@H]2CO)[C@H](N)[C@@H](O)[C@@H]1O | MIC | > 64 µg/mL
NC[C@@H]1O[C@H](O[C@H]2[C@@H](O)[C@H](O[C@@H]3[C@@H](O)[C@H](N)C[C@H](N)[C@H]3O[C@H]3O[C@H](CO)[C@@H](OCO[C@H]4O[C@H](CO)[C@@H](O)[C@H](O)[C@H]4O)[C@H](O)[C@H]3N)O[C@@H]2CO)[C@H](N)[C@@H](O)[C@@H]1O | MIC | ≥ 128 µg/mL
CN[C@@H]1[C@@H](O[C@H]2O[C@H](CO)[C@@H](N)[C@H](O)[C@H]2O)O[C@H]2C[C@@H](N)[C@@H](O[C@H]3[C@H](O)[C@@H](O)[C@H](N)C[C@@H]3N)O[C@@H]2[C@@H]1O | MIC | 8 µg/mL
NC[C@@H]1O[C@H](O[C@H]2[C@@H](O)[C@H](O[C@@H]3[C@@H](O)[C@H](N)C[C@H](N)[C@H]3O[C@H]3O[C@H](CO)[C@@H](O[C@H]4O[C@H](CO)[C@@H](N)[C@H](O)[C@H]4O)[C@H](O)[C@H]3N)O[C@@H]2CO)[C@H](N)[C@@H](O)[C@@H]1O | MIC | 32 µg/mL
NC[C@@H]1O[C@H](O[C@H]2[C@@H](O)[C@H](O[C@@H]3[C@@H](O)[C@H](N)C[C@H](N)[C@H]3O[C@H]3O[C@H](CO)[C@@H](O[C@H]4O[C@H](CO)[C@H](O)[C@H](O)[C@H]4O)[C@H](O)[C@H]3N)O[C@@H]2CO)[C@H](N)[C@@H](O)[C@@H]1O | MIC | > 128 µg/mL
NC[C@@H]1O[C@H](O[C@H]2[C@@H](O)[C@H](O[C@@H]3[C@@H](O)[C@H](N)C[C@H](N)[C@H]3O[C@H]3O[C@H](CO)[C@@H](O[C@@H]4O[C@H](CO)[C@@H](O)[C@H](O)[C@@H]4O)[C@H](O)[C@H]3N)O[C@@H]2CO)[C@H](N)[C@@H](O)[C@@H]1O | MIC | > 128 µg/mL
NC[C@@H]1O[C@H](O[C@H]2[C@@H](O)[C@H](O[C@@H]3[C@@H](O)[C@H](N)C[C@H](N)[C@H]3O[C@H]3O[C@H](CO)[C@@H](O[C@@H]4O[C@H](CO)[C@H](O)[C@H](O)[C@H]4O)[C@H](O)[C@H]3N)O[C@@H]2CO)[C@H](N)[C@@H](O)[C@@H]1O | MIC | > 128 µg/mL

meta.source: ChEMBL document CHEMBL3588782
